Data provenance is patent US20260174875A1.

Form field: Food intake (relative to vehicle) Day 2 (one value per entry).
Tested on: Male Sprague Dawley (SD) rats
Assay: Efficacy testing on appetite: acute food intake in ad libitum fed normal weight rats
Type: in vivo, rat
Conditions: single dose 10 nmol/kg, day 2 [24-48 hours]
Numbered stars: 1 amine (or outer) side, 2 acyl side, 3 side chain; on linkers, the order of the positions; unused ones are H or OH. Square brackets hold non-standard residues; d marks the D form. Side chains are listed from the residue outwards. * marks the point of attachment. C18 diacid = O=C(O)CCCCCCCCCCCCCCCCC(=O)*; C16 diacid = O=C(O)CCCCCCCCCCCCCCC(=O)*; γGlu = O=C(O)[C@H](CCC(=O)[*:2])N[*:1]; AEEA = NCCOCCOCC(=O)O; Aib = CC(C)(N)C(=O)O
Quick note: give the figure in %, leave out the unit.

Use these answered entries as a reference point.
H[Aib]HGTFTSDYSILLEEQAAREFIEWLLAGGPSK([AEEA-AEEA-γGlu-C18 diacid])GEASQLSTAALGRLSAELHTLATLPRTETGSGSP-NH2 [Compound 63]	−80
H[Aib]HGTFTSDYSILLEEQAAREFIEWLLAGGPSSGEASHLSTAALGRLSAELHRLK([AEEA-AEEA-γGlu-C18 diacid])TLPRTETGSGSP-NH2 [Compound 89]	−78
H[Aib]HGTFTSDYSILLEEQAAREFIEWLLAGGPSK([AEEA-AEEA-γGlu-C16 diacid])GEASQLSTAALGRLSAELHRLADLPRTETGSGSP-NH2 [Compound 62]	−42

Look up Food intake (relative to vehicle) Day 2: H[Aib]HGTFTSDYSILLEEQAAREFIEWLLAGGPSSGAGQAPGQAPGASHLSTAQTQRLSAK([AEEA-AEEA-γGlu-C18 diacid])LHRLATLPRTETGSGSP-NH2 [Compound 78]
−57

Look up Food intake (relative to vehicle) Day 2 for this substance: Y[Aib]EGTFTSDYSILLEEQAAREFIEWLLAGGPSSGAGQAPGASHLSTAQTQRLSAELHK([AEEA-AEEA-γGlu-C18 diacid])LATLPRTETGSGSP-NH2 [Compound 97]
−82
